# protein stability index listing for each entry below
B1: FAM46D (parent)
chain: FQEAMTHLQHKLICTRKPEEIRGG

variants of: B1; test: protein stability index of a GFP-peptide fusion (GPS, HEK-293T) (PSI 1-6); higher = more stable; details: c terminus: a fixed tail appended;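 further: lentivirally expressed fusions sorted by FACS into six bins by GFP to DsRed ratio, PSI derived from sequencing read proportions per bin multiplied by bin number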

sequence chain	protein stability index
FQEAMTHLQHKLICTRKPEEIGGG [R22G]	2.85
FQEMMTHLQHKLICTRKPEEIRGG [A4M]	3.38
FQEAMTHLQHKLICTRMPEEIRGG [K17M]	2.87
FQEAMTHLQHKLICTRAPEEIRGG [K17A]	2.58
FQEAMTHLQHKLICTRKPEKIRGG [E20K]	3.26
FQEAMTHLQHKLIMTRKPEEIRGG [C14M]	2.38
FQEAMTHLQHKLICTRKHEEIRGG [P18H]	2.33
FQEAMTHAQHKLICTRKPEEIRGG [L8A]	3.91
FQEAMTHLWHKLICTRKPEEIRGG [Q9W]	1.16
FQEAMTHLQHKWICTRKPEEIRGG [L12W]	1.27
FGEAMTHLQHKLICTRKPEEIRGG [Q2G]	3.01
FQEAMTHLQHKLICTRKPEETRGG [I21T]	3.56
FQEAMTHYQHKLICTRKPEEIRGG [L8Y]	2.34
FQEAMTHLQHKLICTRKPEGIRGG [E20G]	1.99
FQEAMTHSQHKLICTRKPEEIRGG [L8S]	3.62
FQEAMTHLQHKLICTRKPEHIRGG [E20H]	1.89
FQEAMTHLQHKLICTRKEEEIRGG [P18E]	3.41
FQEAMTHLQHKLICTRKPREIRGG [E19R]	1.42
FQEFMTHLQHKLICTRKPEEIRGG [A4F]	1.82
FQEAMTHLQHKYICTRKPEEIRGG [L12Y]	2.31
NQEAMTHLQHKLICTRKPEEIRGG [F1N]	4.29
FQEAMTHLQHKLICTRKPEEIRIG [G23I]	2.6
